Assay: Phase 1a single ascending dose study: UV-4 plasma concentrations and PK parameters (LC-MS/MS, noncompartmental)
Format: in vivo
Conditions: both sexes, human, plasma, po, 90 mg, 90 mg single oral dose; Geo Mean; read-out: Vz/F
parameter: Vd/F (L)

# molecule, unit-descriptor, reported-value
measured = [
    ("COCCCCCCCCCN1C[C@H](O)[C@@H](O)[C@H](O)[C@H]1CO [UV-4B]", "L", 358),
]

----------
Assay: Phase 1a single ascending dose study: UV-4 plasma concentrations and PK parameters (LC-MS/MS, noncompartmental)
Type: in vivo
Conditions: both sexes, human, plasma, po, 30 mg, 30 mg single oral dose; Ar Mean; read-out: Cmax
parameter: Cmax (ng/mL)

# line-notation, reported-value
measured = [
    ("COCCCCCCCCCN1C[C@H](O)[C@@H](O)[C@H](O)[C@H]1CO", 292),
]

----------
Assay: Phase 1a single ascending dose study: UV-4 plasma concentrations and PK parameters (LC-MS/MS, noncompartmental)
Format: in vivo
Details: both sexes, human, plasma, po, 1000 mg, 1000 mg single oral dose; median; read-out: tmax

# compound, Tmax
records = [
    ("COCCCCCCCCCN1C[C@H](O)[C@@H](O)[C@H](O)[C@H]1CO [UV-4, N-(9’-methoxynonyl)-1-deoxynojirimycin]", "1 h"),
]

----------
Test: Phase 1a single ascending dose study: UV-4 plasma concentrations and PK parameters (LC-MS/MS, noncompartmental)
Format: in vivo
Conditions: both sexes, human, plasma, po, 180 mg, 180 mg single oral dose; Ar Mean; read-out: AUC(0-8)

# line-notation, AUC(0-t) [ng·h/mL]
measured = [
    ("COCCCCCCCCCN1C[C@H](O)[C@@H](O)[C@H](O)[C@H]1CO", 5910),
]

----------
Test: Phase 1a single ascending dose study: UV-4 in pooled urine, urinary recovery and renal clearance
Assay type: in vivo, human
Conditions: both sexes, human, urine and plasma, po, 1000 mg, 1000 mg single oral dose; Geo Mean
parameter: CL renal (mL/min)

# line-notation, unit-descriptor, reported-value
rows = [
    ("COCCCCCCCCCN1C[C@H](O)[C@@H](O)[C@H](O)[C@H]1CO", "mL/min", 195),
]

----------
Assay: Phase 1a single ascending dose study: UV-4 plasma concentrations and PK parameters (LC-MS/MS, noncompartmental)
Type: in vivo
Conditions: both sexes, human, plasma, po, 720 mg, 720 mg single oral dose; Geo Mean; read-out: t1/2 (converted)

# compound, half-life [h]
data = [
    ("COCCCCCCCCCN1C[C@H](O)[C@@H](O)[C@H](O)[C@H]1CO [UV-4, N-(9’-methoxynonyl)-1-deoxynojirimycin]", 8.2),
]

----------
Assay: Phase 1a single ascending dose study: UV-4 in pooled urine, urinary recovery and renal clearance
Assay type: in vivo, human
Conditions: both sexes, human, urine, po, 180 mg, 180 mg single oral dose; Ar Mean

# compound, unit-descriptor, CL renal
records = [
    ("COCCCCCCCCCN1C[C@H](O)[C@@H](O)[C@H](O)[C@H]1CO [UV-4B]", "mL/min", 233),
]

----------
Test: Phase 1a single ascending dose study: UV-4 plasma concentrations and PK parameters (LC-MS/MS, noncompartmental)
Assay type: in vivo
Conditions: both sexes, human, plasma, po, 720 mg, 720 mg single oral dose; Geo Mean; read-out: AUC(0-8)
parameter: AUC(0-t)

# line-notation, parameter, reported-value
data = [
    ("COCCCCCCCCCN1C[C@H](O)[C@@H](O)[C@H](O)[C@H]1CO", "AUC(0-t)", "28900 ng·h/mL"),
]
